human O-GlcNAcase (Homo sapiens) measurements of log10 of Ki, listed per entry.
Sequence (O60502 whole entry): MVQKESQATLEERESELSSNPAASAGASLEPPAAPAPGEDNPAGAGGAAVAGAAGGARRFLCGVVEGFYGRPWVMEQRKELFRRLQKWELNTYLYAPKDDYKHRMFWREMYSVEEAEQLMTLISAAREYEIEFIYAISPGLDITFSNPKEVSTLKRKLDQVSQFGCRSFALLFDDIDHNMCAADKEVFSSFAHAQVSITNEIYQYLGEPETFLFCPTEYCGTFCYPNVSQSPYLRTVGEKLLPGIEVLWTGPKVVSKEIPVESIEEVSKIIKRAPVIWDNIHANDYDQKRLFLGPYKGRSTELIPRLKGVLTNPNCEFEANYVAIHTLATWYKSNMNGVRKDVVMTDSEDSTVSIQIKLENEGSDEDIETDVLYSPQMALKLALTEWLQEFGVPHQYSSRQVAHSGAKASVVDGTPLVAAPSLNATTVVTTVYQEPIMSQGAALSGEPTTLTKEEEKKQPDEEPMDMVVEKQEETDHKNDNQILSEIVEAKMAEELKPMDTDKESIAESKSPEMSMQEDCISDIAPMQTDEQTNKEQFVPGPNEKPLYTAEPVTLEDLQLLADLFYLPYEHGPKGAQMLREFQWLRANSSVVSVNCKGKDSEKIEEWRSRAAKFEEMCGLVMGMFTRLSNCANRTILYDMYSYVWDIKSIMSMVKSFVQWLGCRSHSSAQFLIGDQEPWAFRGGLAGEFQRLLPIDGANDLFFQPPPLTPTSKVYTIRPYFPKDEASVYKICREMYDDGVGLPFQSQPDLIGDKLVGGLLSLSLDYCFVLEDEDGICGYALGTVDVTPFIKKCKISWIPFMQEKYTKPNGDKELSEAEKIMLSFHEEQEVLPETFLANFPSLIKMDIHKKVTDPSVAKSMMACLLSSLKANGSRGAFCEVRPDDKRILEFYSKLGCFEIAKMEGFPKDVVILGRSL
Structures can show the parent of a compound that is named as a salt.
readout kind: log10 of Ki (log10 of the value in nM)

# compound, log10 of Ki
data = [
    ("CNC(=O)[C@@H]1[C@@H](O)[C@@H](O)[C@H](O)[C@@H](CO)N1C [Example 1, hydrochloride]", 3.17),
    ("CNC(=O)[C@@H]1[C@@H](O)[C@@H](O)[C@H](O)[C@@H](CO)N1C/C=C/c1ccc(-c2ccccc2)cc1", 3.26),
    ("CNC(=O)[C@H]1N[C@H](CO)[C@@H](O)[C@H](O)[C@@H]1O [(hydrochloride salt), reference compound]", 2.22),
    ("CNC(=O)[C@@H]1[C@@H](O)[C@@H](O)[C@H](O)[C@@H](CO)N1CCCCc1ccccc1", 2.40),
    ("CCNC(=O)[C@H]1N[C@H](CO)[C@@H](O)[C@H](O)[C@@H]1O [Example 4, hydrochloride]", 3.52),
    ("CNC(=O)[C@@H]1[C@@H](O)[C@@H](O)[C@H](O)[C@@H](CO)N1CCCCC(C)C", 2.79),
]

====

# experimental details: Determination of apparent permeability (Papp), bi-directional transport in LLC-PK1 cells
# Format: in vitro ADME
# condition notes: pig, test compound 1 μM, t=3 h, average of A to B and B to A

# molecule, unit, Papp at 3 h, 1 μM
records = [
    ("CNC(=O)[C@@H]1[C@@H](O)[C@@H](O)[C@H](O)[C@@H](CO)N1CCCc1ccc(-c2ccccc2)cc1 [Example 3]", "×10⁻⁶ cm/s", 3),
]

FYI, the data here is from patent US20170107180A1.
